assay: yeast display, Sf9 membrane polyspecificity reagent, FACS + sequencing; frameworks hold sequencing errors
reported_endpoint: polyreactivity (PSR sort gate)

Worked examples follow.
QVQLVESGGGLFQAVGSLRLSCAASGSTFIPNAMGWYRQAPGKERELVADISYSGGTTYYADSVKGRFTISRDNAKKTVYLQMNSLKPEDTSVYYCAAVYYTSFYSWPPYDYWGQGTQVTVSS    low polyreactivity
QVQLVESGGGLVQAGGSHRLSCAASGSIFTAYALGWYRQATGKARELVAAIDVSGDSTYYADSVKGRFTISRDNAKKTVYLQMNSLKPEDTAVYYCKAEYRVNKEYDYWGQGTQVTVSS    low polyreactivity
QVQLVESGGGLVQAGGSLRLSCAASGFTFRYYAMGWYRPAPGKEREFVAAISKSGGTTDYADSVKGRFTISRDNAKNTVYLQMSSLKPEDTAVYYCAKSGGRLWYVWRRYGYWGQGTQVTVSS    high polyreactivity
QVQLVESGGGLVQAGGSLRLSCAASGRIFPWYTMGWYRQAPGKESELVATIRGSGGSTHYADSVKGRFTISRDNAKNTVYLQMNSLKPEDTAVYYCATDRPRYRYQYKFDYWGQGTQVTVSS    low polyreactivity

Consider the additional sequence presented here.
**Query** Entry "QVQLVESGGGLVQAGGSLRLSCAASGGIFRIYAMGWYRQAPGKERELVASISRSGGRTYYADSVKGRFTISRDNAKNTVYLQMNSLKPEDTAVYYCAVSLQGYNQVDYYYWGQGTQVTVSS" has what polyreactivity (PSR sort gate)?
**Result** high polyreactivity

====

test: yeast display, Sf9 membrane polyspecificity reagent, FACS + sequencing; frameworks hold sequencing errors
reported_endpoint: polyreactivity (PSR sort gate)

Worked examples follow.
QVQLVESGGGLVQAGGSLRLICAASGYIFPYYAIGWYRQAPGKERELVAGITTDGSSTYYADSVKGRFTISRDNAKNTVYLQMPSLKPEDTAVYYCYGYPGYTWGWYDYWGQGTQVTVSS    low polyreactivity
GSTIYADSVKGRFTISRDNAKNTVYLQMNSLKPEDTAVYYCNKDDRNDRTIPGYDPEYDYWGQGTQVTVSS    low polyreactivity
QVQLVESGGGLVQAGGSLRLRCAASGSTFSEYAMGWYRQAPGKERELVAAISYNGGSTYYADSVKGRFTISRDNAKNTVYLQMNSLKPEDTAVYYCNAKLFYDRYDYWGQGTQVTVSS    low polyreactivity
QVQLVESGGGLVQAGGSLRLICDAYVSTFYYYAMGWYRQAPGKVRELVAAISSGGSTNYADSVKGRFTISRDNAKNTVYLQMNILKPEDTAVYYCNAYSYWWLGYDYWGQGTQVTVSS    high polyreactivity
QVQLVESGGGLVQAGGSLRLSCAASGSTFSPNAMGWYRQAPGKERELVAAITGGGSTYADSVKGRFTISRDNAKNTVYLQMNSLKPEDTAVYYFNADSYSFPYYYWGQGTQVTVSS    low polyreactivity
QVQLVDSGGGLVQAGGRLRLSCAPSGLTFARNAMGWYIQAPGKERELVAAISRSGGRTSYADSVKGRFTISRDIAKNTVYVQMNSLKPVDTAVYYCAARSDVYSHDYWGQGTQVTVSS    high polyreactivity
QVQLVESGGGLVQAGGSLRLSCAASGRTFWWNAMGWYRQAPGKERELVAVISYSGGSTYYADSVKGRFTISRDNAKNTVYLQMNSLKPEDTAVYYCAAEAYTYWDTIYDYLGQGTQVTVSS    high polyreactivity
QVQLVESGGGLVQAGGSLRLSCAASGSNFPYYALGWYRQAPGNERELVATITYRGGSTNYADSVKGRFTISRDNAKNTVYLQMNSLKPEDTAVYYCADYGYVLASPYPYSFVKLGYWGQGTQVTVSS    low polyreactivity
QVQLVESGGGLVQAGGSLRLSCAASGFTFTYYAMGWYRQAPGKERELVASISRRGGDTYYADSVKGRFTISRDNAKNTVYLQMNSLKPEDTAVYYCATRRRQALDGGYYYWGQGTQVTVSS    high polyreactivity
QVQLEESGGGLVQAGGSLRLSCAASGSIFDLNAMGWYRQAPGKERELVAANSSGGGTYYADSVKGRFTISRDNAKNTVYLQMNSLKPEDTAVYYCAAVGYKGYGYDYWGQGTQVTVSS    high polyreactivity

Now let's try a different one.
**Query** Param item = "QVQLVESGGGLVQAGGTLRISCAASGRTFRKYAMGWYRQAPGKERELVAAISWSGGSTYYANSVKGRFTISRDNAKNTVYLQMNSLKPEDTAVYYCAAVPVHTGSLYWGFTTGYDYWGQGTQVTVSS" ; retrieve measured polyreactivity (PSR sort gate).
**Result** low polyreactivity

Ref: the nanobody polyreactivity screen of Harvey et al. (2022)
